target.system: HIV-integrase (Human immunodeficiency virus type 1 group M subtype B, UniProt P04585)
Construct: 0.26 ng of recombinant integrase was incubated with the beads for 90 min at 37 C
experiment.notes: HIV integrase SPA integration assay (biotin-labeled substrate DNA on streptavidin SPA beads, P33-labeled target DNA)
Type: biochemical
condition.set: percent inhibition of HIV-integrase in the presence of 20 μM of compound
Known inhibition at 20 µM of a selection of molecules
Could you give me the number in %? Just the number is fine.

Identify inhibition at 20 µM associated with the molecule CN(C)C(=O)CON(Cc1ccc(F)cc1)C(=O)C1=C(O)C(=O)N(C)C1 [Compound 72]
98.8

Tell me its inhibition at 20 µM given CN(Cc1ccc(Cl)c(Cl)c1)C(=O)C1=C(O)C(=O)N(CC(=O)O)C1 [Compound 20] as the entry.
99.9
